Property: melting point

[[record]]
molecule = "c1cncc(-c2nnc(NCC3CC3)s2)c1"
reported_measurement = "162 to 165 °C"

[[record]]
molecule = "Cc1nc(N)nc(N)c1N1CCN(c2ccc(C(=O)NCC(=O)O)cc2)CC1"
reported_measurement = "> 310 °C"

[[record]]
molecule = "Cc1csc(-c2nc(COc3ccc(CCCCn4ccnc4)cc3)co2)c1"
reported_measurement = "77 to 78 °C"


Item under review: "COC(=O)c1c(-c2cc(OC)c(OC)c(OC)c2)c2cc(OC)c(CC#N)cc2c(=O)n1-c1ccc(NC(=O)OC(C)(C)C)cc1" . Reported melting point?
136 to 138 °C

Item under review: "Cc1nc2c(N)nc3ccccc3c2n1CCCCNC(=O)c1ccccc1" . Reported melting point?
164 to 170 °C

Item under review: "CCOCc1nc2c(N)nc3ccccc3c2n1CCCCS(=O)(=O)Nc1ccc(OC)cc1" . Reported melting point?
229 to 230 °C

Item under review: "Cn1c(SCCCN2CCc3ccc(NS(C)(=O)=O)cc3C2)nnc1-c1ccccc1" . Reported melting point?
90 °C

Item under review: Cc1c(NC(=O)c2ccc(OCC3CCOC3)cc2)ccc2cc(CNCC(C)C)cnc12 (stereo not drawn) . Reported melting point?
132 °C

Item under review: CCC(=O)Nc1cc(-c2sc(C(C)O)nc2-c2cccc(C)c2)ccn1 (stereo not drawn) . Reported melting point?
115 to 116 °C

Item under review: "O=S(=O)(Nc1ccc2c(OCc3ccc(-c4cccc(Cl)c4)cc3)cccc2c1)C(F)(F)F" . Reported melting point?
170 to 171 °C

Item under review: "CC(C)n1c(=O)ccc2cnc(Nc3cccnc3)nc21" . Reported melting point?
156 to 158 °C

Item under review: "C=C(C)C(=O)NCC(=O)NCC(=O)O" . Reported melting point?
200 to 201 °C

Item under review: "Cc1ccc(S(=O)(=O)Nc2ccccc2O)cc1" . Reported melting point?
140 °C

Item under review: "CCCC(=O)Nc1n[nH]c2cc(-c3ccccc3)ccc12" . Reported melting point?
220 °C

Item under review: "CCCCOC(=O)c1ccc2ccc(C)nc2c1O" . Reported melting point?
50 °C

Item under review: CC(C)CC(NC1OC(=O)C2C3C=CC(C3)C12)C(=O)OCc1ccccc1 (stereo not drawn) . Reported melting point?
88 °C

Item under review: COC(=O)C1Cc2ccccc2NC1=O (stereo not drawn) . Reported melting point?
165 to 168 °C

Item under review: CCCN(C)C(C)CN1CCc2c(c(=O)oc3cc(OC)ccc23)C1 (stereo not drawn) . Reported melting point?
69 to 71 °C

###

Property: melting point

Some molecules with recorded melting point:
[[record]]
molecule = "Cc1ccc(C#N)c(OCc2ccc(OCc3nc(-c4ccccc4)oc3C)cc2)n1"
reported_measurement = "116 to 117 °C"

[[record]]
molecule = "Cc1cccc(N2CCN(C(=O)OC(C)(C)C)CC2)c1[N+](=O)[O-]"
reported_measurement = "101 to 102 °C"

[[record]]
molecule = "Cc1ncn2c1CN(C)C(=O)c1ccccc1-2"
reported_measurement = "184 to 186 °C"

[[record]]
molecule = "COC(=O)c1sc(S)c(Cl)c1O"
reported_measurement = "48 to 49 °C"

[[record]]
molecule = "CNC(=O)c1cccc(F)c1Nc1nc(Nc2ccc3c(c2)N(C(C)=O)CC(=O)NC3)ncc1Cl"
reported_measurement = "179 to 185 °C"

[[record]]
molecule = "CC(C#N)c1ccc(Cl)nn1 (stereo not drawn)"
reported_measurement = "65 °C"


Item under review: COC(=O)C1=CC(=O)CC(c2ccc(Cl)cc2)N1 (stereo not drawn) . Reported melting point?
113 to 114 °C

Item under review: "COc1ccc2c(NCCN3CCOCC3)noc2c1" . Reported melting point?
85 to 86 °C
